Values from ChEMBL document CHEMBL5308504

ΔTm reference
# target_under_test: UniProt P22607
# Sequence (P22607 23-806 limits assumed): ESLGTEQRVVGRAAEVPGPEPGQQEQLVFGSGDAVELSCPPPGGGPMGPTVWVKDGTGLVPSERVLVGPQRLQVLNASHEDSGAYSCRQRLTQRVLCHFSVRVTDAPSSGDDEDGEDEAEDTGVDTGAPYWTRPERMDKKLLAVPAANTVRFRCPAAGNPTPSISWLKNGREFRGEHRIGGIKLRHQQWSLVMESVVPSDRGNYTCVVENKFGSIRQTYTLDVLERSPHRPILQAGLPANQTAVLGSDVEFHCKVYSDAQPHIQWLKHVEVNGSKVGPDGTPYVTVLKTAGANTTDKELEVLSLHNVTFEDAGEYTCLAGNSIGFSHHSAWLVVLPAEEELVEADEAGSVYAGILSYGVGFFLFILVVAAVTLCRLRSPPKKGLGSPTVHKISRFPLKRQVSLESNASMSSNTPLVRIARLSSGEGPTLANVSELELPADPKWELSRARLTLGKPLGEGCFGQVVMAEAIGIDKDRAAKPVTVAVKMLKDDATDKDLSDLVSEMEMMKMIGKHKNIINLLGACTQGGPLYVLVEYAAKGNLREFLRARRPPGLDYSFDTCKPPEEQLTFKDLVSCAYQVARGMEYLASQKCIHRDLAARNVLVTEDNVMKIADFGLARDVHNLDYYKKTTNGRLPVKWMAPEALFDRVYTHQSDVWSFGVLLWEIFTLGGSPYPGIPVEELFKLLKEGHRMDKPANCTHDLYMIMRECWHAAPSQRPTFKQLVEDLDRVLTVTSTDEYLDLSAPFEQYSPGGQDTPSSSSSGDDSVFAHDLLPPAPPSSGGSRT
# condition_context: Compound concentration 20.0 uM, Protein concentration 2.0 uM, Result type QC Liability
# Description: Thermal Shift Assay. Domain: start/stop: P449-E759
Provide only the numeric value, understood in °C.

> print(dat)
                                   compound  readout.units  data.value
1  Cc1nn(C)c(COc2ccc(N3CCN(S(=O)(=O)N(C)C)CC3)cc2)c1-c1cccc2c(CCCOc3cccc4ccccc34)c(C(=O)O)n(CCN3CCOCC3)c12             °C        0.47

Looking up CC(C=CC1=C(C)CCCC1(C)C)=CC=CC(C)=CC(=O)O , I see its ΔTm listed as 0.68

ΔTm reading for CCN(C)C(=O)c1ccc2c(c1)NC(=O)/C2=C(\NC1CCN(C)CC1)c1ccccc1 : 0.47

Record CCCCCNC(=O)N1CCC(CN(Cc2ccc(Cl)cc2)Cc2ccc([N+](=O)[O-])s2)C1 (centres undefined) , field ΔTm: 0.77
